This collection of values is drawn from PubChem BioAssay.

Examples of molecules with documented cell count follow.
- assay-protocol: inhibitors of TNFa-induced NFkB p65 translocation, primary screen, imaging, HUVEC, MLSMR starter and 10KST1 sets (AID 438);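 further: compound added about 3h40 before a 20 min TNFalpha stimulation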
- condition-context: HUVEC TNFa-induced p65 nuclear translocation; measured here: nuclei count (cytotoxicity indicator), at 2.08 µM
Respond with the number and no other words.

CN(CC(=O)Nc1ccccc1Cl)C(=O)COC(=O)CNC(=O)c1ccc(Br)o1	436
CCCCOC(=O)Nc1nc2ccc(OC)cc2s1	743
O=C(NCc1ccco1)C1CCN(C(=O)c2cc3sccc3n2Cc2ccc(F)cc2)CC1	571
CC1Cc2ccccc2N1C(=O)Cc1cccs1 (stereo unspecified)	275
CC(C(=O)NC1CCCCCC1)N(c1ccccc1)S(C)(=O)=O (stereo unspecified)	370
CCN(CC)C(=O)CSc1nc2ccc(NC(=O)CSc3nccn3C)cc2s1	729
CCCc1ccc(C(C)NC(=O)c2cnccn2)cc1 (stereo unspecified)	375
C=CCSc1nc2c(c(=O)[nH]c(=O)n2C)n1C(C)C	309

Value lookup for cell count; key = `CCOC(=O)N1CCN(C(=O)Nc2ccc3oc(C)nc3c2)CC1` 254

Value lookup for cell count; key = `Cc1cc2c(cc(C(=O)NCc3cccnc3)n2Cc2ccc(Cl)cc2)o1` 672

Value lookup for cell count; key = CCOC(=O)CSC1=Nc2ccccc2C2=NC(CC(=O)NCc3ccc(OC)cc3)C(=O)N12 (stereo unspecified) 463
